Exercise: for every item that follows, state its recorded Ratio IC50.
# Test system: Macrophage
# TEST: Selectivity index, ratio of IC50 for C57BL/6 mouse macrophages to IC50 for LPS-induced NO production in C57BL/6 mouse macrophages
Please give only the number in your answer, with no unit.

Could you share which Ratio IC50 value was measured for "COC(=O)[C@]12OC[C@]34[C@H]([C@@H](O)[C@@H]1O)[C@@]1(C)CC(=O)C(OC(=O)CCC(=O)OCCCCOc5no[n+]([O-])c5S(=O)(=O)c5ccccc5)=C(C)[C@@H]1C[C@H]3OC(=O)[C@H](OC(=O)C=C(C)C)[C@@H]24" ?
8.9

Field request: Ratio IC50 | item: "COC(=O)[C@]12OC[C@]34[C@H]([C@@H](O)[C@@H]1O)[C@@]1(C)CC(=O)C(OC(=O)CCC(=O)OCc5ccc(OCc6c(-c7ccccc7)no[n+]6[O-])cc5)=C(C)[C@@H]1C[C@H]3OC(=O)[C@H](OC(=O)C=C(C)C)[C@@H]24"
3.2

GET /values?readout=Ratio IC50&item= "COC(=O)[C@]12OC[C@]34[C@H]([C@@H](O)[C@@H]1O)[C@@]1(C)CC(=O)C(O)=C(C)[C@@H]1C[C@H]3OC(=O)[C@H](OC(=O)CCC(=O)OCCCCOc1no[n+]([O-])c1S(=O)(=O)c1ccccc1)[C@@H]24"
5.7

Which Ratio IC50 value belongs to "COC(=O)[C@]12OC[C@]34[C@H]([C@@H](O)[C@@H]1O)[C@@]1(C)CC(=O)C(O)=C(C)[C@@H]1C[C@H]3OC(=O)[C@H](OC(=O)CCC(=O)OCc1ccc(OCc3c(-c5ccccc5)no[n+]3[O-])cc1)[C@@H]24" ?
2.2

What does the data say about its Ratio IC50? Entry: "CC(C)=CC(=O)O[C@H]1C(=O)O[C@@H]2C[C@H]3C(C)=C(O)C(=O)C[C@]3(C)[C@H]3[C@@H](O)[C@H](O)[C@]4(C(=O)OCCCCOc5no[n+]([O-])c5S(=O)(=O)c5ccccc5)OC[C@]32[C@@H]14"
2.7

Would you kindly share the measured Ratio IC50 for "COC(=O)[C@]12OC[C@]34[C@H]([C@@H](O)[C@@H]1O)[C@@]1(C)CC(=O)C(OC(=O)c5ccccc5C(=O)OCCCCOc5no[n+]([O-])c5S(=O)(=O)c5ccccc5)=C(C)[C@@H]1C[C@H]3OC(=O)[C@H](OC(=O)C=C(C)C)[C@@H]24" ?
1.9

Fill in: Ratio IC50 of "CC(C)=CC(=O)O[C@H]1C(=O)O[C@@H]2C[C@H]3C(C)=C(O)C(=O)C[C@]3(C)[C@H]3[C@@H](O)[C@H](O)[C@]4(C(=O)OCc5ccc(OCc6c(-c7ccccc7)no[n+]6[O-])cc5)OC[C@]32[C@@H]14" is ___
1.8

###

# TEST: Toxicity in Kunming mouse administered orally as single dose measured over 14 days
# Type: organism-based
# RUN CONDITIONS: in vivo, po
OBSERVABLE: LD50 at 336 h (µmol/kg)
Only the number, expressed in µmol/kg, is required.

I'd like to know its LD50 at 336 h. The molecule in question is "COC(=O)[C@]12OC[C@]34[C@H]([C@@H](O)[C@@H]1O)[C@@]1(C)CC(=O)C(OC(=O)CCC(=O)OCCCCOc5no[n+]([O-])c5S(=O)(=O)c5ccccc5)=C(C)[C@@H]1C[C@H]3OC(=O)[C@H](OC(=O)C=C(C)C)[C@@H]24"
41.1

###

# Tested on: Macrophage
# TEST: Selectivity index, ratio of IC50 for C57BL/6 mouse macrophages to IC50 for LPS-induced NO production in C57BL/6 mouse macrophages
OBSERVABLE: Ratio IC50

Look at this molecule and give its reported Ratio IC50. "CC(C)=CC(=O)O[C@H]1C(=O)O[C@@H]2C[C@H]3C(C)=C(OC(=O)CCC(=O)OCCCCOc4no[n+]([O-])c4S(=O)(=O)c4ccccc4)C(=O)C[C@]3(C)[C@H]3[C@@H](O)[C@H](OC(=O)CCC(=O)OCCCCOc4no[n+]([O-])c4S(=O)(=O)c4ccccc4)[C@]4(C(=O)O)OC[C@]32[C@@H]14"
>149

Requested read-out: Ratio IC50. Entry: "CC(C)=CC(=O)O[C@H]1C(=O)O[C@@H]2C[C@H]3C(C)=C(OC(=O)CCC(=O)OCCCCOc4no[n+]([O-])c4S(=O)(=O)c4ccccc4)C(=O)C[C@]3(C)[C@H]3[C@@H](O)[C@H](O)[C@]4(C(=O)O)OC[C@]32[C@@H]14"
>7.6

// returns reported Ratio IC50 for input "COC(=O)[C@]12OC[C@]34[C@H]([C@@H](O)[C@@H]1O)[C@@]1(C)CC(=O)C(OCc5ccc(OCc6c(-c7ccccc7)no[n+]6[O-])cc5)=C(C)[C@@H]1C[C@H]3OC(=O)[C@H](OC(=O)C=C(C)C)[C@@H]24"
>4.7

Cited source: ChEMBL document CHEMBL3352594
